Assign pEC50 to each entry below.
Tested on: JJN-3 cells
Assay: Biological Assay C: antiproliferative activity on JJN-3 cells (CellTiter-Glo)
Type: cell-based
Conditions: Homo sapiens, 72 hr treatment
Procedure: Determination of Antiproliferative Activity on LP-1, L-363 and JJN-3 Cells All compounds tested were dissolved in DMSO and further dilutions were made in culture medium. Final DMSO concentration was 0.3% (v/v) in cell proliferation assays. Viability was assessed using CellTiter-Glo cell viability assay kit (Promega). […] Luminescence was measured on a HTS Topcount (Perkin Elmer). […]
Please keep in mind that pEC50 is minus log10 of the molar concentration; only the number is needed.

What reported pEC50 corresponds to CC(O)(C#Cc1cc2c(cn1)c(C1CCN(CCCF)CC1)cn2-c1nc(N)ncc1F)C1CC1 (stereo not drawn) [Compound 47] on JJN-3 cells?
6.62

Item Nc1ncc(Cl)c(-n2ccc3cnc(C#CC4(O)CCCC4)cc32)n1 [Compound 9] with JJN-3 cells - pEC50?
5.74

# query: pEC50 | item CN1CCC(c2cn(-c3nc(N)ncc3F)c3cc(C#CC(C)(C)O)ncc23)CC1 [Compound 25] | system: JJN-3 cells
6.89

Request - read-out pEC50 | tested on JJN-3 cells | compound Nc1nccc(-n2ccc3cnc(C#CC4(O)CC4)cc32)n1 [Compound 4]
7.25

Form entry - test system: JJN-3 cells; read-out: pEC50; compound: CC(CC#N)c1cn(-c2nc(N)ncc2F)c2cc(C#CC(C)(C)O)ncc12 (stereo not drawn) [Compound 38]
6.21

Please state recorded pEC50 (tested on JJN-3 cells) of CN(C)C(=O)c1cn(-c2ccnc(N)n2)c2cc(C#CC(C)(C)O)ncc12 [Compound 2]
5.48

---

test system: JJN-3 cells; assay: Biological Assay C: antiproliferative activity on JJN-3 cells (CellTiter-Glo); type: cell-based; details: Homo sapiens, 72 hr treatment
Kindly state log10 EC50 for each of the entries shown.
Field: value | Transform: log10 | Quantity: EC50 | Unit: nM

Given `CC(C)(O)C#Cc1cc2c(cn1)c(CCO)cn2-c1ccnc(N)n1` , state its recorded log10 EC50.
2.26

Entry `[2H]C([2H])([2H])C(O)(C#Cc1cc2c(cn1)c(C1CCN(Cc3ccccc3)CC1)cn2-c1ccnc(N)n1)C([2H])([2H])[2H]` has what log10 EC50?
1.95

Dear colleague, I am looking for the recorded log10 EC50 of the following compound: `CCc1cn(-c2ccnc(N)n2)c2cc(C#CC(C)(C)O)ncc12`
1.61

// returns reported log10 EC50 for input `[2H]C([2H])([2H])C(O)(C#Cc1cc2c(cn1)c(C1CCN(C3CC3)CC1)cn2-c1ccnc(N)n1)C([2H])([2H])[2H]`
1.28

Endpoint output: log10 EC50 of Cc1cc(C(C)(O)C#Cc2cc3c(cn2)c(C2CCN(C)CC2)cn3-c2ccnc(N)n2)no1 (centres unmarked) . Value?
2.82
